Source: paper PMC10397247

Target or system: T1, 4H465-AA
T1 chain: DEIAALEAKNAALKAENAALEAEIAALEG
Experiment description: two-hybrid library CCmax;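 also: natural log of median RNA to DNA barcode read ratio; higher means stronger binding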
Condition parameters: mean of both orientations
Quantity kind: interaction score

{"Binder": "DKIAALKAKNAALKAEIAALKAENAALKG [4H3020-AA]", "interaction score": -1.7}
{"Binder": "DENAALKAKIAALEAEIAALKAEIAALKG [4H1802-AA]", "interaction score": -1.48}
{"Binder": "DKIAALKAEIAALEAKIAALEAKNAALKG [4H2600-AA]", "interaction score": -1.72}
{"Binder": "DKIAALKAENAALEAKIAALEAEIAALEG [4H2721-AA]", "interaction score": -0.696}
{"Binder": "DKIAALKAKIAALKAENAALEAEIAALKG [4H2898-AA]", "interaction score": -1.49}

(1) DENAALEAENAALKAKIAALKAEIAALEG [4H1257-AA]
(2) DKIAALKAENAALEAKNAALKAKIAALKG [4H2750-AA]
Input pair: 1 , 2 . Output: entry with lower interaction score. When you have decided, please share the label of that item.
1
(1: -0.726, 2: 2.28)
